Origin of the recorded values: patent US10882866B1

molecular target: GST-MDM2 protein (aa 23-117) / biotinylated p53 wt peptide (p53-MDM2 interaction) (Homo sapiens (Human), UniProt Q00987); assay: Mdm2-p53 Inhibition AlphaScreen; details: 20 nM GST-MDM2 (aa 23-117), 20 nM biotinylated p53 wt peptide
Sequence (Q00987 23-117): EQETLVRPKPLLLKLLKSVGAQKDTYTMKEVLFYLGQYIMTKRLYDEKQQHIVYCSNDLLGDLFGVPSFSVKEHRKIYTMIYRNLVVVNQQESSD
assay_endpoint: IC50 (nM)
Answer with a number only, understood to be in nM.

Exercise: Record request: IC50 value, item COc1cc2c(cc1C(N)=O)nc1n2CC[C@H]2[C@@H]1[C@H](c1cccc(Cl)c1F)[C@]1(C(=O)Nc3cc(Cl)ccc31)N2CC1CC1
Solution: 2
